Origin of the recorded values: ChEMBL document CHEMBL1961873

Reported inhibition by item:
system: Proto-oncogene tyrosine-protein kinase ROS (Homo sapiens) (UniProt P08922);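 further: value given is the mean percent inhibition of ROS kinase activity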
Sequence (P08922 whole entry): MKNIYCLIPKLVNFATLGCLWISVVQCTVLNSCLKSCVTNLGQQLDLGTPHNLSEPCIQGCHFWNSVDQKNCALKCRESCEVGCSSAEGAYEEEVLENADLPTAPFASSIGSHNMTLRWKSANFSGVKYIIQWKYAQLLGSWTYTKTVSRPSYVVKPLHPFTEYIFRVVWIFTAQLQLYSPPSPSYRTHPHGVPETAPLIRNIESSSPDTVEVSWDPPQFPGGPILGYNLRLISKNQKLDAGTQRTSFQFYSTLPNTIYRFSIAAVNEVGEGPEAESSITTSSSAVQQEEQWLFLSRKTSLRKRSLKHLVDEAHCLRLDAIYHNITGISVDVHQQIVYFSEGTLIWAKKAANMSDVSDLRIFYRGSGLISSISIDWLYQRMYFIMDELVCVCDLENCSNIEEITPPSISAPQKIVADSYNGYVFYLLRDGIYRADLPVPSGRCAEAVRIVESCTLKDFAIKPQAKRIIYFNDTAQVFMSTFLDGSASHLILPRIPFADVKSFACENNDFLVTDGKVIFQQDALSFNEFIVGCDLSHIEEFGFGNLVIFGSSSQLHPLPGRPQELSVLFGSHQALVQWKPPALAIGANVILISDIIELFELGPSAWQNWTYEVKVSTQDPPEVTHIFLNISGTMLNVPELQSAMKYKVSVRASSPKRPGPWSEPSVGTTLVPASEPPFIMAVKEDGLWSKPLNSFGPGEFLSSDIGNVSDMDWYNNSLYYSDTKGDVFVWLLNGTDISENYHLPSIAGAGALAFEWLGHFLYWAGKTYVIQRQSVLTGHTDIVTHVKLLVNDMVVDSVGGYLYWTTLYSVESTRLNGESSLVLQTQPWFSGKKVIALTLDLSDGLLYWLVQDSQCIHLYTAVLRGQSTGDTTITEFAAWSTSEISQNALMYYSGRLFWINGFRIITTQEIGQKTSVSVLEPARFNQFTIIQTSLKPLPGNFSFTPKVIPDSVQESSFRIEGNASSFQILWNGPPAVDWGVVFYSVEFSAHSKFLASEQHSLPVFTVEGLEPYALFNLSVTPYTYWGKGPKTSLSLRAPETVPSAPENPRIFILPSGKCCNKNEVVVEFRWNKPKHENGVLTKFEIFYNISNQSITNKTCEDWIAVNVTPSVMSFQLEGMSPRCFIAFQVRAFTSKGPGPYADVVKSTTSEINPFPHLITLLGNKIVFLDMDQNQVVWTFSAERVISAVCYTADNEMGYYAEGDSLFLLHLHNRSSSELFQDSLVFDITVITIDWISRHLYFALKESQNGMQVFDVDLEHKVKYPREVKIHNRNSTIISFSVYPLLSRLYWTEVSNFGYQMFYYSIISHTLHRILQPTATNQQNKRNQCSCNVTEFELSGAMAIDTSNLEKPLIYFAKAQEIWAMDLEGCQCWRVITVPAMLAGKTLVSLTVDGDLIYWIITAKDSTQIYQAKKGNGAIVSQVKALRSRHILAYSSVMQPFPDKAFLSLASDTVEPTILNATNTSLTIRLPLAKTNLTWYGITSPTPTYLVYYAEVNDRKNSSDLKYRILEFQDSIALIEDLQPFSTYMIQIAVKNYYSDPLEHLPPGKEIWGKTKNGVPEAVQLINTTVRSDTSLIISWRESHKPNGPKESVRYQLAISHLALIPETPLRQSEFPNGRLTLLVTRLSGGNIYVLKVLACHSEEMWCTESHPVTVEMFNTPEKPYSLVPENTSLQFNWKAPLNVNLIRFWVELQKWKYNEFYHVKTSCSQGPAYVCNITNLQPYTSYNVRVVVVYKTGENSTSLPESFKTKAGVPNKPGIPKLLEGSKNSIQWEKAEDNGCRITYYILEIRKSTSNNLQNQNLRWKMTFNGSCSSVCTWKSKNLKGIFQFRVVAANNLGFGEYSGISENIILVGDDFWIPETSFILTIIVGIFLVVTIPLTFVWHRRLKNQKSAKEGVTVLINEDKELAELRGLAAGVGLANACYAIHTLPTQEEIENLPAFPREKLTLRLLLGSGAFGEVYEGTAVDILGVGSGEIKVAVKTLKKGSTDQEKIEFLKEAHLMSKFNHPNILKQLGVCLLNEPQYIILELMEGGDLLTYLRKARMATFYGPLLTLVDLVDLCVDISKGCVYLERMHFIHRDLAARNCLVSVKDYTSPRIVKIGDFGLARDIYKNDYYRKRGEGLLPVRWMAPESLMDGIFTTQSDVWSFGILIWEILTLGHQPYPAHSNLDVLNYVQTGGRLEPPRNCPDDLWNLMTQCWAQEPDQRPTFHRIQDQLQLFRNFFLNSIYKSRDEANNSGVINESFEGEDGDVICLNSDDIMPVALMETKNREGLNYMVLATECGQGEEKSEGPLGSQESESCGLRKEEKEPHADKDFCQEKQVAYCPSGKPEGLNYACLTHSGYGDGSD
particulars: at 1 µM
A number alone suffices; assume %.

Q) Please give the measured inhibition for this compound: `O=C(O[C@H]1CN[C@H](C#Cc2cc3ncnc(Nc4ccc5c(ccn5Cc5cc(F)ccc5F)c4)c3s2)C1)N1CCOCC1`
A) 6.27

Turning to the following compound.
Q) Please give the measured inhibition for this compound: `CN(C)CCNC(=O)Nc1ccc(N(C)c2ccnc(Nc3ccc(CS(C)(=O)=O)cc3)n2)cc1`
A) 78

----------
system: Phosphatidylinositol 4-kinase beta (Homo sapiens) (UniProt Q9UBF8);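 further: values given are mean percent inhibition of PI4K-beta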
Sequence (Q9UBF8 2-816 limits assumed): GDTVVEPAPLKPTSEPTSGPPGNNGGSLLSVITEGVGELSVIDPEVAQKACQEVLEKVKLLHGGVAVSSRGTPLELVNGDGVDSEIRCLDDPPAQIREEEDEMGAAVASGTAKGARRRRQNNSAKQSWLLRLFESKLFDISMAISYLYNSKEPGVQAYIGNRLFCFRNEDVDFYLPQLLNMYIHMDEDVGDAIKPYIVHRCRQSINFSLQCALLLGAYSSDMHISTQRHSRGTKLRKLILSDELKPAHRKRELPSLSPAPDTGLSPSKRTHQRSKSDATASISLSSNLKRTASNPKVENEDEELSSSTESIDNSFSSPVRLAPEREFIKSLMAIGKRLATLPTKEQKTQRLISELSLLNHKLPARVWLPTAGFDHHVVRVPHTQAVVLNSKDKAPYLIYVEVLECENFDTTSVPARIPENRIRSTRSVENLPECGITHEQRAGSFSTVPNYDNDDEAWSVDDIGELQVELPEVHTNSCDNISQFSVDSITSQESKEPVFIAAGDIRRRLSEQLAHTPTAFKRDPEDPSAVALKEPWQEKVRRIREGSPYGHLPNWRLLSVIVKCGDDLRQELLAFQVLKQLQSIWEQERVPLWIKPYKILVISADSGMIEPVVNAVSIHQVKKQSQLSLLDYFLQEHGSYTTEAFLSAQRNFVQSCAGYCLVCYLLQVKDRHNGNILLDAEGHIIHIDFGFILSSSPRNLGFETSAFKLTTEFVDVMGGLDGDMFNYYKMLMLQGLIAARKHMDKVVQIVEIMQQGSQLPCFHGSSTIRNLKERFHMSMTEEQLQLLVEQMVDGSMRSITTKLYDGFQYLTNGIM
particulars: at 0.1 µM
Reported inhibition by item:
A number alone suffices; assume %.

Q) Please give the measured inhibition for this molecule: `COC(=O)Nc1nc2ccc(Oc3ccc(NC(=O)Nc4cc(C(F)(F)F)ccc4F)cc3)cc2s1`
A) -2.75

Q) Please give the measured inhibition for this molecule: `Cc1cc(O)cc(C)c1/C=C/c1cncc(C(=O)OC(C)(C)C)c1`
A) 1.7
